# maps each entry to its Ki range for both μ and σ1 (dual-binding class)
molecular target: σ1 receptor and the μ-opiod receptor; assay: μ and σ1 dual binding: combined class from the Ki of both radioligand assays; design: species or system human; settings: transfected HEK-293 membranes (σ1), transfected CHO-K1 cell membranes (μ)

Here's what some known entries look like.
Need Ki range for both μ and σ1 (dual-binding class), item Oc1cccc(C2CCN(Cc3cn(-c4ccc(Cl)cc4Cl)nn3)CC2)c1 < 100 nM

Now consider Oc1cccc(C2CCN(Cc3cn(-c4ccc(C(F)(F)F)nc4)nn3)CC2)c1 and answer again. < 100 nM

Now consider CS(=O)(=O)Nc1cncc(C2CCN(Cc3cn(-c4ccccc4)nn3)CC2)c1 and answer again. ≥ 500 nM

Now consider Oc1cccc(C2CCN(Cc3cn(Cc4cccnc4)nn3)CC2)c1 and answer again. < 500 nM

Now consider Oc1cccc(C2CCN(Cc3cn([C@H]4CC[C@H](C(F)(F)F)CC4)nn3)CC2)c1 and answer again. < 100 nM

Now consider c1ccc(-n2cc(CN3CCC(c4cccc(-c5ncc[nH]5)c4)CC3)nn2)cc1 and answer again. < 500 nM

Now consider Oc1cccc(C2CCN(Cc3cn(Cc4ccc(F)cn4)nn3)CC2)c1 and answer again. < 500 nM

Now consider CC(C)S(=O)(=O)Nc1cccc(C2CCN(Cc3cn(Cc4ccccc4)nn3)CC2)c1 and answer again. < 500 nM

Okay, next one:
Need Ki range for both μ and σ1 (dual-binding class), item CC(C)S(=O)(=O)Nc1cccc(C2CCN(Cc3cn(Cc4ccccn4)nn3)CC2)n1 < 500 nM

###

# maps each entry to its Ki range for both μ and σ1 (dual-binding class)
biological target: σ1 receptor and the μ-opiod receptor; assay: μ and σ1 dual binding: combined class from the Ki of both radioligand assays; set-up: species or system human; conditions: transfected HEK-293 membranes (σ1), transfected CHO-K1 cell membranes (μ)

Here's what some known entries look like.
Please state recorded Ki range for both μ and σ1 (dual-binding class) (tested on σ1 receptor and the μ-opiod receptor) of CS(=O)(=O)Nc1cccc(C2CCN(Cc3cn(Cc4ccccc4)nn3)CC2)c1 < 0.5 µM

Now consider COc1c(NS(C)(=O)=O)cccc1C1CCN(Cc2cn(-c3ccccc3)nn2)CC1 and answer again. < 0.5 µM

Now consider Oc1cccc(C2CCN(Cc3cnn(-c4ccccc4)c3)CC2)c1 and answer again. < 0.1 µM

Now consider c1ccc(-n2cc(CN3CCC(c4cccc(-c5nnn[nH]5)c4)CC3)nn2)cc1 and answer again. ≥ 0.5 µM

Next:
Please state recorded Ki range for both μ and σ1 (dual-binding class) (tested on σ1 receptor and the μ-opiod receptor) of c1ccc(-n2cc(CN3CCC(c4ccc5nc[nH]c5c4)CC3)nn2)cc1 < 0.5 µM

Now consider Oc1cccc(C2CCN(Cc3cnn(Cc4ncccc4F)c3)CC2)c1 and answer again. < 0.5 µM

###

target: σ1 receptor and the μ-opiod receptor; assay: μ and σ1 dual binding: combined class from the Ki of both radioligand assays; parameters: species or system human; conditions: transfected HEK-293 membranes (σ1), transfected CHO-K1 cell membranes (μ)
experimental.readout: Ki range for both μ and σ1 (dual-binding class)

Need Ki range for both μ and σ1 (dual-binding class), item Nc1nc2c(C3CCN(Cc4cn(-c5ccccc5)nn4)CC3)cccc2s1 [Example 50] < 0.1 µM

Now consider CS(=O)(=O)Nc1cccc(C2CCN(Cc3cn(-c4ccccc4)nn3)CC2)c1 [Example 62] and answer again. < 0.1 µM

Now consider CC(C)S(=O)(=O)Nc1cccc(C2CCN(Cc3cn(Cc4ncccc4F)nn3)CC2)c1 [Example 114] and answer again. < 0.5 µM

Now consider CC(C)S(=O)(=O)Nc1cccc([C@@H]2CCN(Cc3cn(-c4ccccc4)nn3)C[C@@H]2O)c1 (racemic) [Example 115] and answer again. < 0.5 µM

Now consider CC(=O)Nc1nc2c(C3CCN(Cc4cn(-c5ccccc5)nn4)CC3)cccc2s1 [Example 49] and answer again. < 0.1 µM

Next:
Need Ki range for both μ and σ1 (dual-binding class), item CS(=O)(=O)Nc1cccc(C2CCN(Cc3cc(Cc4ccccc4)no3)CC2)c1 [Example 178] < 0.5 µM
